Assay: NCI Yeast Anticancer Drug Screen. Data for the rad50 strain (AID 155)
Details: S. cerevisiae rad50 strain growth inhibition; at 50.0 µM; stronger effect = higher value
The panel holds about 79,000 compounds, 15% with a hit somewhere; the sample as a whole holds those more often.
Returns the class for an entry based on its growth inhibition. Class ranges: low bin: < 30%; mid bin: ≥ 30% and < 90%; high bin: ≥ 90%

COc1ccc2nc3cc(Cl)ccc3c(Nc3ccc(O)c(CN4CCN(C)CC4)c3)c2c1 ... mid bin
C=CC(=O)Nc1ccccc1CC(c1c[nH]c2ccccc12)c1c[nH]c2ccccc12 ... mid bin
COC(=O)c1nc(Cl)nc(Cl)c1N ... high bin
O=C(Nc1ccc([N+](=O)[O-])cc1[N+](=O)[O-])C(=O)C(C(=O)c1ccc(Cl)c(Cl)c1)C1OC(=O)c2ccccc21 (stereo unspecified) ... mid bin
Cc1cc2c(c([N+](=O)[O-])c1C)C(=O)C(Br)=C(N)C2=O ... high bin
c1ccc(N=Nc2n[nH]c3ccccc23)cc1 ... high bin
CC[O-].CC[O-].[O-]c1ccccc1C=Nc1ccccc1.[O-]c1ccccc1C=Nc1ccccc1.[Ti+4] ... mid bin
COc1cc(C(c2ccccc2)c2ccccc2)c2ccccc2c1O ... mid bin
[Fe+2].c1cc[cH-]c1.c1ccc(-c2ccc[cH-]2)cc1 ... low bin
CCCCCCCCCCN ... mid bin
Cc1ccc(S(=O)(=O)CC2COC(CS(=O)(=O)c3ccc(C)cc3)CO2)cc1 (stereo unspecified) ... low bin
O=C1c2cccc(S(=O)(=O)O)c2C(=O)c2cccc([N+](=O)[O-])c21 ... mid bin
Nc1nnc2nc(CC(=O)c3ccccc3)/c(=C/C(=O)c3ccccc3)n12 ... low bin
c1ccc2c3[nH]c(c2c1)=Nc1ccc(cc1)-c1nc2ccc(cc2o1)N=c1[nH]c(c2ccccc12)=Nc1ccc2nc(oc2c1)-c1ccc(cc1)N=3 ... mid bin
O=[N+]([O-])c1ccccc1CC(c1c[nH]c2ccccc12)c1c[nH]c2ccccc12 ... mid bin
CN1C(OCc2ccccc2)c2c(ccc3c2OCO3)C2C=Cc3cc4c(cc3C21)OCO4 (stereo unspecified) ... high bin
CCNc1cc2c3c(c1)CCCN3CCC2 ... low bin
COc1cc(C=Nc2ccc(Cl)cc2)ccc1OC(=O)c1ccccc1 ... low bin
CN1CCN(CCCN)CC1 ... low bin
